Test system: MOLM14
Assay: cell viability relative to vehicle control; higher = less cytotoxic;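 also: after 48 h exposure read by CellTiter-Glo luminescence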
Conditions: 10 µM; SRSF2 genotype: SRSF2 wt/wt
Counter-ions that a name gives are not always drawn.
ASSAY_ENDPOINT: cell viability (%)
# unit: % | format: bare number

Would you please look over these solved cases?
Given O=C(c1cccc(Cl)c1F)N1CCN(Cc2cccc(Nc3nccs3)n2)CC1 , state its recorded cell viability.
71.4

State the recorded cell viability for this entry: CC(C)c1cnn2c(NCc3ccccc3-n3cccn3)nc(OC3CCCNC3)nc12 (stereo unspecified)
0.56

So what's the measured cell viability for this one? CCOC(=O)[C@H](CCc1ccccc1)N[C@H]1CS[C@H](c2cccs2)CN(CC(=O)O)C1=O [Temocapril HCl]
102

I have this compound here, COc1cc2nc(N3CCCC3)nc(NCCCCCN3CCCC3)c2cc1OC , and I need its recorded cell viability.
0.27

---
# input compound: CCCC(=O)Nc1cccc(NC(=O)c2ccccc2Br)c1 ; wanted: its cell viability
100

cell viability lookup needed for Cn1cc(-c2ccc3c(c2)CCN3C(=O)Cc2cccc(C(F)(F)F)c2)c2c(N)ncnc21 , thanks.
16

---

System: K562
Assay: cell viability relative to vehicle control; higher = less cytotoxic
Conditions: 10 µM; SRSF2 genotype: SRSF2 wt/wt
Counter-ions that a name gives are not always drawn.
ASSAY_ENDPOINT: cell viability (%)
// note: answer is a bare numeric in %

# cell viability lookup, item NCc1c[nH]c(=S)n1[C@@H]1CCc2c(F)cc(F)cc2C1 [(R)-Nepicastat HCl]
102

Others:
cell viability for O=c1c(O)c(-c2ccc(O)c(O)c2)oc2cc(O)ccc12 ?
105

Given the compound S=C(N/N=C1/CCCc2cccnc21)N1CCN(c2ccccn2)CC1 , what is its reported cell viability?
26.6

---

Recorded measurements of cell viability, one per entry
Test system: MARIMO
Experiment: cell viability relative to vehicle control; higher = less cytotoxic
Conditions: 10 µM; SRSF2 genotype: SRSF2 wt/wt
Number only, in %; omit the unit.

// query cell viability value for entry O=C(N/N=C/c1cc(O)c(O)cc1O)c1cc2ccccc2cc1O
89.5

Would you kindly share the measured cell viability for O=C([O-])c1ccccc1.[Na+] [Sodium benzoate] ?
90.9

State the recorded cell viability for this entry: COCCCN1CCC(NC(=O)c2cc(Cl)c(N)c3c2OCC3)CC1 [Prucalopride]
91.6

---

System: MOLM14
Test: cell viability relative to vehicle control; higher = less cytotoxic
Conditions: 10 µM; SRSF2 genotype: SRSF2 P95H/wt
Where a name gives a salt, the structure may show the parent alone.
Assign labels as follows, please: Satisfied for cell viability below 90%; Not satisfied for cell viability equal to or exceeding 90%.

Observe how each entry below is paired with its result.
Dear reviewer, please state whether COc1ccc(C(=O)CC2(O)C(=O)Nc3c(Cl)ccc(Cl)c32)cc1 (configuration not stated) has cell viability strictly beneath 90%.
Satisfied

Lab note: cell viability threshold 90%. Does this molecule come in strictly under it? O=CC[C@@H](O)[C@H](O)[C@H](O)CO [2-Deoxy-D-glucose]
Not satisfied

Bench note: check whether CC(NC(=O)C(Cc1ccccc1)NC(=O)OCc1ccccc1)C(=O)CF (configuration not stated) shows cell viability below 90%
Not satisfied

***
Determine whether this molecule shows cell viability lower than 90% (ties excluded): CC1(C)Cc2c(sc(NC(=O)c3ccn[nH]3)c2C(N)=O)C(C)(C)O1
Not satisfied

In the record for CC(=O)c1ccc(NN=C(C(N)=O)C2=NC(C)(C)Cc3ccccc32)cc1 , is cell viability less than 90%?
Satisfied

Lab note: confirm whether the reported cell viability for this molecule is below 90%, equality not counting. molecule: C=C1C(=O)O[C@H]2[C@H]1CCC(C)=C1CC[C@@](C)(O)[C@@H]12 [Micheliolide]
Satisfied

Confirm or reject: cell viability of CN1CCN2c3ccccc3Cc3ccccc3C2C1 (configuration not stated) [Mianserin HCl] lies strictly below 90%
Not satisfied

hey, is cell viability for C[C@H](CCC(=O)NCC(=O)O)[C@H]1CC[C@H]2[C@@H]3[C@H](O)C[C@@H]4C[C@H](O)CC[C@]4(C)[C@H]3C[C@H](O)[C@]12C [Glycocholic acid] lower than 90% or not?
Not satisfied

State whether 90% exceeds cell viability recorded for CC(C)NCC(O)c1ccc(NS(C)(=O)=O)cc1 (configuration not stated) [Sotalol HCl] .
Not satisfied

Lab note: confirm whether the reported cell viability for this molecule is below 90%, equality not counting. molecule: COC1C(O)C(O)C(O)C(O)C1O (configuration not stated) [Sequoyitol]
Not satisfied

Determine whether this molecule shows cell viability lower than 90% (ties excluded): CCCCOC(=O)c1ccccc1Nc1cccc(C(F)(F)F)c1 [Ufenamate]
Not satisfied

In plain terms, does CC(C)NCC(O)COc1cccc2ccccc12 (configuration not stated) [Propranolol HCl] come in under 90% for cell viability?
Not satisfied

Determine if O=c1ccn([C@@H]2O[C@H](CO)[C@@H](O)[C@H]2O)c(=O)[nH]1 [Uridine] shows cell viability strictly lower than 90%.
Satisfied

# check: cell viability < 90% for Nc1nc(N)c2nc(-c3ccccc3)c(N)nc2n1 [Triamterene]
Not satisfied

---

Test system: OCI-AML2
Experiment: cell viability relative to vehicle control; higher = less cytotoxic
Conditions: 10 µM; SRSF2 genotype: P95H/wt
Where a name gives a salt, the structure may show the parent alone.
Hi! Could you tag entries with cell viability below 90% as yes (1), and those at or above as no (0)? Much appreciated.

Solved entries (count: 8):
Is 90% strictly greater than the molecule's reported cell viability? molecule: C[C@@H](NCCCc1cccc(C(F)(F)F)c1)c1cccc2ccccc12 [AMG-073 HCl (Cinacalcet hydrochloride)]
yes (1)

cell viability under 90%? Item: Cc1nc(C(=O)NCC(=O)O)c(O)c2ccc(Oc3ccccc3)cc12
yes (1)

In the record for NCCOCCOCCNC(=O)Cc1ccc(Nc2nc(NCc3ccc(F)cc3)nc(NCC3CCCCC3)n2)cc1 [AP-III-a4 (ENOblock)] , is cell viability less than 90%?
yes (1)

Lab note: cell viability threshold 90%. Does this molecule come in strictly under it? Oc1cccc(O)c1O
no (0)

Say whether its cell viability is strictly beneath 90%. Entry: C[C@@H]([C@H](C)O)[C@H](N)C(=O)O [(4S)-4-Hydroxy-L-isoleucine]
no (0)

Could you please tell me whether cell viability recorded for Cc1cc(C(=O)Nc2nc3cccc(Cl)c3n2[C@@H]2CCCCN(C(=O)/C=C/CN(C)C)C2)ccn1 [Nazartinib (EGF816, NVS-816)] is less than 90%?
yes (1)

Does CC(C)(O[C@@H]1O[C@H](CO)[C@@H](O)[C@H](O)[C@H]1O)[C@H]1Cc2cc3ccc(=O)oc3cc2O1 have cell viability strictly under 90%?
no (0)

# TODO verify cell viability < 90% strictly for this molecule: CC(=O)Nc1ccc(C(=O)Nc2ccccc2N)cc1
yes (1)

Could you now look at the following molecule, please?
Given CNCc1ccc(-c2cc(-c3nc(-c4ccc(S(=O)(=O)C(C)C)cc4)cnc3N)on2)cc1 , is recorded cell viability strictly lower than 90%?
yes (1)

---

# key: entry, value: cell viability
Tested on: K562
Assay: cell viability relative to vehicle control; higher = less cytotoxic
Conditions: 10 µM; SRSF2 genotype: SRSF2 wt/wt
The answer is to be given in %; state only the numeric part.

Sample records with cell viability:
Looking for the measured cell viability of O=C(Nc1nc2cccc(-c3ccc(CN4CCS(=O)(=O)CC4)cc3)n2n1)C1CC1 , can you help?
84.5

Returns the measured cell viability for the input compound. Input: COc1cc2ncnc(Nc3ccc(F)c(Cl)c3)c2cc1NC(=O)/C=C/CN1CCCCC1
87.8

With those in mind, consider the next compound.
Data request, read-out cell viability, for CC(=O)[C@H]1CC[C@H]2[C@@H]3CC=C4C[C@@H](O)CC[C@]4(C)[C@H]3CC[C@]12C
107

---

Test system: MOLM14
Test: cell viability relative to vehicle control; higher = less cytotoxic
Settings: 10 µM; SRSF2 genotype: SRSF2 P95H/wt
Counter-ions that a name gives are not always drawn.
ASSAY_ENDPOINT: cell viability (%)
Please reply with the bare figure in % and do not write the unit itself.

Worked cases, answers included:
// returns reported cell viability for input CCOC(=O)[C@H](CCc1ccccc1)N[C@H]1CS[C@H](c2cccs2)CN(CC(=O)O)C1=O [Temocapril HCl]
99.7

Entry under review: NC(CO)C(=O)NNCc1ccc(O)c(O)c1O (stereo not drawn) [Benserazide HCl] . Reported cell viability?
85.3

I have this compound here, Cc1cc(C)c(CN2CCc3c(Cl)cc(-c4c(C)noc4C)c(Cl)c3C2=O)c(=O)[nH]1 , and I need its recorded cell viability.
77.6

State the recorded cell viability for this entry: C[C@H]1C[C@H]2[C@@H]3CCC4=CC(=O)C=C[C@]4(C)[C@H]3C(=O)C[C@]2(C)[C@@]1(O)C(=O)CO
105

Consider the compound CC(=O)Oc1ccccc1C(=O)Nc1ncc([N+](=O)[O-])s1 [Nitazoxanide (Alinia, Annita)] and give its measured cell viability.
92.5

***
Endpoint output: cell viability of COc1cc2ncnc(Nc3ccc(O)c(Br)c3)c2cc1OC . Value?
32.4

# cell viability lookup, item Cc1ccc(Nc2cc(N[C@@H]3CCCC[C@@H]3N)nnc2C(N)=O)nc1C
18.6

// query cell viability value for entry CCCNS(=O)(=O)Nc1ncnc(OCCOc2ncc(Br)cn2)c1-c1ccc(Br)cc1
103

Using the record for CC(C)n1c(=O)n(C)c2cnc3cc(F)c(-c4ccc(OCCCN5CCCCC5)nc4)cc3c21 , report its cell viability.
30.9

// lookup cell viability for COC(=O)Nc1nc2cc(C(=O)c3ccc(F)cc3)ccc2[nH]1
8.51

// returns reported cell viability for input CCCCCCCCCC[C@H](C(=O)O)[C@]1(C(=O)O)CCC(=O)O1
98.8

Any idea what cell viability was measured for Cc1cc(C)nc(NC(=S)N2CCN(Cc3ccc(C(F)(F)F)cc3)CC2)c1 ?
77.3

Find the recorded cell viability belonging to O=C1C[C@@H](c2ccccc2)Oc2cc(O)cc(O)c21 and report it.
109

Quick check: cell viability of COc1cc(OC)c2c(=O)[nH]c(-c3cc(C)c(OCCO)c(C)c3)nc2c1 ?
77.8

Look up cell viability for this compound: C[N+]1(C)CCC(=C(c2ccccc2)c2ccccc2)CC1 [Diphemanil Methylsulfate]
99

Can you look up the measured cell viability of C=C(Cc1ccccc1Cl)C(=O)OCC for me?
96.2

Which measured cell viability value corresponds to COc1ccc(/C=C/C(=O)c2c(O)cc(OC)cc2OC)cc1 ?
72.6

Need cell viability, item COc1cc(C2Oc3cc([C@H]4Oc5cc(O)cc(O)c5C(=O)[C@@H]4O)ccc3OC2CO)ccc1O (stereo partly drawn) [Silibinin (Silybin)]
98.8

Look up cell viability for this compound: CCCCCCCCCCCCCCCCCCCCCCCCCCCCO
100

Find the recorded cell viability belonging to CCCCCCCCCCCCCc1cccc(O)c1C(=O)O and report it.
104

Look at this compound and give its reported cell viability. O=C(O)c1cc(O)c2c(c1)[C@@H]([C@H]1c3cc(C(=O)O)cc(O)c3C(=O)c3c(O[C@@H]4O[C@H](CO)[C@@H](O)[C@H](O)[C@H]4O)cccc31)c1cccc(O[C@@H]3O[C@H](CO)[C@@H](O)[C@H](O)[C@H]3O)c1C2=O [Sennoside B]
76.2

Data credit: the supplement of paper PMC10981050
